# assay-target: Substance P receptor (Cavia porcellus, UniProt P30547)
# Construct: from tissue; host or cells: guinea pig (male Hartley) trachea and lung, crude membrane fraction
# Sequence (P30547 whole entry): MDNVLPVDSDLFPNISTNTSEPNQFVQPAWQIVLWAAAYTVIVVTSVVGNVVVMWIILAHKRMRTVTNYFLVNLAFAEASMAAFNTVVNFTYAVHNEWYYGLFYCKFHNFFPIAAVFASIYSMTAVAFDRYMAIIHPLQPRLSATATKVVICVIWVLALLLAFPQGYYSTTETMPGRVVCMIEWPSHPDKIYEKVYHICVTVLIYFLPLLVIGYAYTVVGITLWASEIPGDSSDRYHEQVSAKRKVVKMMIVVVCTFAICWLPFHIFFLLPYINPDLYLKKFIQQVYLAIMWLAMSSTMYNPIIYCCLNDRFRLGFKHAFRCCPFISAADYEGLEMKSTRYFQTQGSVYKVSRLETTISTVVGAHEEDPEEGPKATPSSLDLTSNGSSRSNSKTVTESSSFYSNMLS
# experiment-description: 3H-Substance P receptor binding to guinea pig crude lung membrane preparation
# test-settings: test compound 1 μg/ml; 3H-substance P 1 nM; guinea pig crude lung membrane fraction; 4° C., 30 minutes
Non-standard residues stand in square brackets, D forms with d. Residues, ends and D or L forms follow the SMILES beside them. *: point of attachment. Boc = CC(C)(C)OC(=O)*; OBn = c1ccc(CO*)cc1; For = O=C*
measured-quantity: inhibition at 1 µg/mL

compound	recorded-value
CC(C)(C)OC(=O)N[C@@H](CCC(N)=O)C(=O)N[C@H](Cc1cn(C=O)c2ccccc12)C(=O)N[C@@H](Cc1ccccc1)C(=O)OCc1ccccc1 [Test Compound (a), Boc-Gln-D-Trp(CHO)-Phe-OBzl] (Boc-Gln-[dW](For)-Phe-OBn)	100%

Could you now look at the following compound, please?
Query string: Suppose we examine the compound CC(C)(C)OC(=O)N[C@@H](CO)C(=O)N[C@H](Cc1cn(C=O)c2ccccc12)C(=O)N[C@@H](Cc1ccccc1)C(=O)OCc1ccccc1 [Test Compound (e), Boc-Ser-D-Trp(CHO)-Phe-OBzl] (Boc-Ser-[dW](For)-Phe-OBn) ; what inhibition at 1 µg/mL value has been reported?
Result string: 99%

###

# assay-target: Substance P receptor (Cavia porcellus, UniProt P30547)
# Construct: from tissue; host or cells: guinea pig (male Hartley) trachea and lung, crude membrane fraction
# experiment-description: 3H-Substance P receptor binding to guinea pig crude lung membrane preparation
# test-settings: test compound 1 μg/ml; 3H-substance P 1 nM; guinea pig crude lung membrane fraction; 4° C., 30 minutes
Non-standard residues stand in square brackets, D forms with d. Residues, ends and D or L forms follow the SMILES beside them. *: point of attachment. Boc = CC(C)(C)OC(=O)*; OBn = c1ccc(CO*)cc1; For = O=C*
Measured inhibition at 1 µg/mL values are reported for all entries that follow.
# output: bare number, implied unit %

molecule	inhibition at 1 µg/mL (%)
CN(C)C(=O)CC[C@H](NC(=O)OC(C)(C)C)C(=O)N[C@H](Cc1cn(C=O)c2ccccc12)C(=O)N[C@@H](Cc1ccccc1)C(=O)OCc1ccccc1 [Test Compound (f), Boc-Glu(NMe2)-D-Trp(CHO)-Phe-OBzl] (Boc-Glu(NMe2)-[dW](For)-Phe-OBn)	100

Proceed to the following item.
Query string: Write down the reported inhibition at 1 µg/mL of C[C@@H](O)[C@H](NC(=O)OC(C)(C)C)C(=O)N[C@H](Cc1cn(C=O)c2ccccc12)C(=O)N[C@@H](Cc1ccccc1)C(=O)OCc1ccccc1 [Test Compound (g), Boc-Thr-D-Trp(CHO)-Phe-OBzl] (Boc-Thr-[dW](For)-Phe-OBn) , test system: Substance P receptor (Cavia porcellus, UniProt P30547).
Result string: 100
